test: Tmax in Sprague-Dawley rat at 5 mg/kg, iv administered as single dose by LC-MS/MS analysis; format: ADME, organism-based; conditions: in vivo
readout-type: Tmax (min)
Number in min, nothing else.

Which Tmax value is on record for CN(C/C=C/c1ccc(-c2ccccc2)cc1)Cc1coc2ccccc12.Cl ?
4.8

---

assay: Half life in mouse at 10 mg/kg, po administered as single dose by LC-MS/MS analysis; type: ADME, organism-based; details: in vivo
readout-type: half-life
Answer with the number, then the unit.

Which half-life value is on record for CN(C/C=C/c1ccc(-c2ccccc2)cc1)Cc1coc2ccccc12.Cl ?
3.35 h

---

pIC50 values, listed per item
biological target: 4,4'-diapophytoene desaturase (4,4'-diaponeurosporene-forming) (Staphylococcus aureus (strain MW2)); assay: Inhibition of CrtN in methicillin-resistant Staphylococcus aureus USA400 MW2 assessed as reduction in staphyloxanthin levels after 48 hrs by spectrophotometric method-based pigment inhibition assay
For clarity, pIC50 is expressed as the negative log10 of concentration in mol/L.

Reference set (2 entries):
CN(C/C=C/c1ccc(C(F)(F)F)cc1)Cc1cccc2ccoc12.Cl | 8.47
CN(C/C=C/c1ccc(-c2ccccc2)cc1)Cc1cccc2cc[nH]c12.Cl | 8.10

// moving on: another record for pIC50
Which pIC50 value is on record for CN(C/C=C/c1ccc(-c2ccccc2)cc1)Cc1coc2ccccc12.Cl ?
8.10

---

biological target: 4,4'-diapophytoene desaturase (4,4'-diaponeurosporene-forming) (Staphylococcus aureus (strain Newman), UniProt O07855); test: Inhibition of CrtN in Staphylococcus aureus Newman assessed as reduction in staphyloxanthin levels after 48 hrs by spectrophotometric method-based pigment inhibition assay; design: species or system Staphylococcus aureus subsp. aureus str. Newman
Sequence (O07855 whole entry): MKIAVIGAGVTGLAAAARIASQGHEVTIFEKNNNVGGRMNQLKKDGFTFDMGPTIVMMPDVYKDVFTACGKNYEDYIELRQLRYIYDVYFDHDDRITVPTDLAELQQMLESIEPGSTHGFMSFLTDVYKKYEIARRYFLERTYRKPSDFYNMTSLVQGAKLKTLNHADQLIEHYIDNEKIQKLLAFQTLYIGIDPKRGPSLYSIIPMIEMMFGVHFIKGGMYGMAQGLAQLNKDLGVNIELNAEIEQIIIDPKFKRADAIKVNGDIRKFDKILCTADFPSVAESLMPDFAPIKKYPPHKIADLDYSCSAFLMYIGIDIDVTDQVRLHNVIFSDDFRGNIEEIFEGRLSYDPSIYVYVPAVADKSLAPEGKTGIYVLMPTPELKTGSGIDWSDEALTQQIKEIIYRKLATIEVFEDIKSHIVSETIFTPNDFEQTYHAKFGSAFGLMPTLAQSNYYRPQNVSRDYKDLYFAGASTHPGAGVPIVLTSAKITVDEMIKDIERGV
readout-type: IC50

CN(C/C=C/c1cccc(C(F)(F)F)c1)Cc1cccc2cc[nH]c12 | > 1000 nM
CN(CC/C=C/c1ccc(-c2ccccc2)cc1)Cc1coc2ccccc12 | > 1000 nM
C/C=C/CN(C)Cc1coc2ccccc12 | 91.3 nM

Which IC50 value is on record for CN(C/C=C/c1ccc(C(F)(F)F)cc1)Cc1cccc2[nH]ccc12 ?
89.6 nM

Now try CN(C/C=C/C1CCCC1)Cc1cccc2cc[nH]c12 .
> 1000 nM

Now try CN(C/C=C/c1ccc(C(F)(F)F)cc1)Cc1cccc2cc[nH]c12 .
50.2 nM

---

target: Cytochrome P450 2C19 (Homo sapiens)
Sequence (P33261 whole entry): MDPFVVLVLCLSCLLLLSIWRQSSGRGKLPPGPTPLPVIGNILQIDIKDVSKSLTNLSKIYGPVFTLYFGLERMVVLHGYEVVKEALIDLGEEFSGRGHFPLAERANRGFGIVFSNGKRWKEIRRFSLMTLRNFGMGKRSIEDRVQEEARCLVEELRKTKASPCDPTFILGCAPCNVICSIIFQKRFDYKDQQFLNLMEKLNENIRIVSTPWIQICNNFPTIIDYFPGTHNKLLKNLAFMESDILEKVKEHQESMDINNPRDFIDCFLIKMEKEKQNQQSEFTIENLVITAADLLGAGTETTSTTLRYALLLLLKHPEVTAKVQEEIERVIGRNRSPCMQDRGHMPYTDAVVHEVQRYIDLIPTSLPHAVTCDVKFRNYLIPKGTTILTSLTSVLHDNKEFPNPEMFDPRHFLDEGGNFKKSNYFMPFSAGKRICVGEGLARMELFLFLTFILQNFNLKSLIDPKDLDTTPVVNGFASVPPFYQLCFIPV
pIC50: −log10 of the molar value.
readout-type: pIC50

Test system Cytochrome P450 2C19 (Homo sapiens); read-out pIC50; what value for CN(C/C=C/c1ccc(-c2ccccc2)cc1)Cc1coc2ccccc12.Cl ?
< 5.00

---

test: Cmax in Sprague-Dawley rat at 5 mg/kg, iv administered as single dose by LC-MS/MS analysis; type: ADME, organism-based; design: dose 5 mg/kg, route intravenous; conditions: in vivo
readout-type: Cmax (ng/mL)
Number in ng/mL, nothing else.

Which Cmax value is on record for CN(C/C=C/c1ccc(-c2ccccc2)cc1)Cc1coc2ccccc12.Cl ?
4610

---

Target: Cytochrome P450 2C8 (Homo sapiens, UniProt P10632)
Sequence (P10632 whole entry): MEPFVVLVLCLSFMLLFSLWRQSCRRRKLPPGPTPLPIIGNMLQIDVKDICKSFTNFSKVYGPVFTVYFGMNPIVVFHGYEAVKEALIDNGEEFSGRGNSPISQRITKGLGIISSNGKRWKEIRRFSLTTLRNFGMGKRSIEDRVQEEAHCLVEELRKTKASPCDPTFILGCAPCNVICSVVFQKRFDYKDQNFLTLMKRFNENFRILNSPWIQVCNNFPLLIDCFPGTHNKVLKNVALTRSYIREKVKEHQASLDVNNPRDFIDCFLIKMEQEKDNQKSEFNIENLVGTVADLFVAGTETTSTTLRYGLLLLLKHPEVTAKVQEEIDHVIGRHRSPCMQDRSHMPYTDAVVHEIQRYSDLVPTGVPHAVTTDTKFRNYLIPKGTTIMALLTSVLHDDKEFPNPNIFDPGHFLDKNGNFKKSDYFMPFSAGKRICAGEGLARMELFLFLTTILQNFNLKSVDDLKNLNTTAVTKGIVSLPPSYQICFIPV
readout-type: IC50

Which IC50 value is on record for CN(C/C=C/c1ccc(-c2ccccc2)cc1)Cc1coc2ccccc12.Cl ?
> 10 µM
